Tested on: SARS-CoV-2
Assay: microbe, parasite or virus in culture
Settings: Severe acute respiratory syndrome coronavirus 2, alpha QK002, HEK-293T
pEC50: −log10 of the molar value.
Listed below: pEC50 values for each entry.
PARAMETER_MEASURED: pEC50

{"columns": ["COMPOUND", "TEST_RESULT"],
 "data": [
  ["O=c1nc(NO)ccn1[C@@H]1O[C@H](CO)[C@@H](O)[C@H]1O [N-HYDROXYCYTIDINE]", 5.91],
  ["COc1cccc2[nH]c(C(=O)N[C@@H](CC(C)C)C(=O)NN(C[C@@H]3CCNC3=O)C(=O)[C@H](F)Cl)cc12", 7.79],
  ["CC(C)C[C@H](NC(=O)c1cc2c(F)cccc2[nH]1)C(=O)NN(C[C@@H]1CCNC1=O)C(=O)[C@@H](F)Cl", 7.16],
  ["COc1cccc2[nH]c(C(=O)N[C@@H](CC(C)C)C(=O)NN(C[C@H]3CCNC3=O)C(=O)[C@H](F)Cl)cc12", 6.99],
  ["CC(C)C[C@H](NC(=O)c1cc2c(F)cccc2[nH]1)C(=O)NN(C[C@@H]1CCNC1=O)C(=O)[C@H](F)Cl", 7.86],
  ["COc1cccc2[nH]c(C(=O)N[C@@H](CC(C)C)C(=O)N[C@@H](C[C@@H]3CCNC3=O)C(=O)CO)cc12", 5.79],
  ["CC(C)C[C@H](NC(=O)c1cc2c(F)cccc2[nH]1)C(=O)NN(C[C@H]1CCNC1=O)C(=O)[C@H](F)Cl", 7.03]
]}
